Data credit: patent US20200131669A1

assay: Caco-2 membrane permeability, improved method as used in the following Examples (96-well, 20 to 24 h preincubation); assay type: in vitro ADME; settings: human; Papp; Table 25, cyclic peptides containing Ser(Et-2-NMe2) or Gln(Ms), not in table head; read-out: Caco-2
Starred links: 1 amine or outer side, 2 acyl side, 3 side chain; linkers in the order of their positions; H or OH if unused. Positions of bridges follow the written chain, without caps; N, C: chain ends. Non-standard residues stand in square brackets, D forms with d. Residues, ends and D or L forms follow the SMILES beside them. *: point of attachment. NMeF = CN[C@@H](Cc1ccccc1)C(=O)O; NMeGABA = CN(CCCC(=O)[*:2])[*:1]; NMeL = CN[C@@H](CC(C)C)C(=O)O; Piperidide = C1CCN(*)CC1; Me2NCH2CH2 = CN(C)CC*

# Molecule, Papp A→B at 180 min / ×10⁻⁶ cm/s
rows = [
    ("CC(C)C[C@@H]1NC(=O)[C@H](Cc2ccccc2)N(C)C(=O)[C@H](Cc2ccccc2)N(C)C(=O)[C@H](COCCN(C)C)NC(=O)[C@H](CC(C)C)N(C)C(=O)CCCN(C)C(=O)C[C@@H](C(=O)N2CCCCC2)NC(=O)[C@H](CC(C)C)N(C)C(=O)[C@H](CC(C)C)N(C)C(=O)[C@H]([C@@H](C)O)NC(=O)[C@H](CC(C)C)N(C)C1=O [pd55] ([NMeGABA][NMeL]S(Me2NCH2CH2)[NMeF][NMeF]L[NMeL]T[NMeL][NMeL]D-Piperidide; lactam N-11)", 0.1),
]
